Sourced from paper PMC8451667

assay_remarks: in vitro
condition_details: dog
property: CC50

# query: CC50 of entry [2H]C(NC12CC3CC(CC(O)(C3)C1)C2)c1ccc(I)s1 (stereo not shown)
> 100 µM

----------
assay_remarks: in vivo
condition_details: male, BALB/c, mouse, ip, 50 mg/kg
property: half-life

Recorded half-life for [2H]C(NC12CC3CC(CC(O)(C3)C1)C2)c1ccc(I)s1 (stereo not shown) , please?
2.34 h

----------
assay_remarks: in vivo
condition_details: male, BALB/c, mouse, ip, 50 mg/kg
property: CL/F (mL/min/kg)
Form entry: value (mL/min/kg) — number only.

Quick one: CL/F for [2H]C(NC12CC3CC(CC(O)(C3)C1)C2)c1ccc(I)s1 (stereo not shown) ?
187

----------
assay_remarks: in vivo
condition_details: male, BALB/c, mouse, ip, 50 mg/kg
property: Cmax (µM)
Output spec: scalar in µM, unitless text.

# get_value(readout='Cmax', item= [2H]C(NC12CC3CC(CC(O)(C3)C1)C2)c1ccc(I)s1 (stereo not shown) )
5.61

----------
assay_remarks: in vivo
condition_details: male, BALB/c, mouse, ip, 50 mg/kg
property: Tmax (min)
Numeric answer only, unit min assumed.

Consider the compound shown here: [2H]C(NC12CC3CC(CC(O)(C3)C1)C2)c1ccc(I)s1 (stereo not shown) What is its recorded Tmax?
25.2

----------
assay_remarks: in vivo
condition_details: male, BALB/c, mouse, ip, 50 mg/kg
property: Vd/F (L/kg)
Please respond with the number in L/kg and leave the unit unwritten.

# get_value(readout='Vd/F', item= [2H]C(NC12CC3CC(CC(O)(C3)C1)C2)c1ccc(I)s1 (stereo not shown) [UAWJ280] )
38
